These entries and their values trace back to ChEMBL document CHEMBL1201862.

System: MCF7
protocol_notes: NCI tumour cell line growth inhibition, 48 h
The source made the active and inactive calls. No stated cut-off is given here; in the data, active = GI50 up to about 1.1 µM and inactive = higher.
Classes used: active, inactive

{"compound": "O=S(=O)(c1ccccc1)[C@@H]1[C@H]2C=C[C@](CS)(O2)[C@H]1S(=O)(=O)c1ccccc1", "classification": "inactive"}
{"compound": "CC(C)NC(=O)OCc1c2c(n(C)c1COC(=O)NC(C)C)-c1cc(Cl)c(Cl)cc1CC2", "classification": "inactive"}
{"compound": "CCOc1cc(C2CC(c3ccc(NS(=O)(=O)c4cc([N+](=O)[O-])ccc4C)cc3)=NN2C(=O)c2ccccc2)ccc1O (stereo not given)", "classification": "inactive"}
{"compound": "CCOC(CN(C)C(=S)Nc1cccc2ccccc12)OCC", "classification": "inactive"}
{"compound": "CCN(CC)CCCNc1nc(=O)[nH]c(C)c1C(=O)Nc1c2ccccc2nc2ccccc12", "classification": "inactive"}
{"compound": "Fc1ccc2nc3n(c2c1)C(c1c(Cl)cccc1Cl)SC3 (stereo not given)", "classification": "inactive"}
{"compound": "C=C1c2nc3ccccc3n2C=C(c2ccc(C)cc2)N1c1ccc(OC)cc1", "classification": "inactive"}
{"compound": "C1=C2SSC3=CC=C(SSc4ccc(s4)SSC4=CC=C(SSC(=C1)S2)S4)S3", "classification": "inactive"}
{"compound": "COc1ccc(C(NCCNC(c2ccc(OC)c(OC)c2)c2cc3c(cc2O)OCO3)c2cc3c(cc2O)OCO3)cc1OC (stereo not given)", "classification": "inactive"}
{"compound": "N#Cc1c(Cl)c2cccnc2n2c1nc1ccccc12", "classification": "inactive"}
{"compound": "N#CC(C#N)=C(N)/C(C#N)=C/c1cc(O)c(O)c(Br)c1", "classification": "inactive"}
{"compound": "CCOC(=O)[C@@H]1ON2O[C@H](OC3CCCC3(c3ccccc3)c3ccccc3)C[C@H]3OC(=O)[C@@H]1C32 (stereo not given in full)", "classification": "inactive"}
{"compound": "COc1ccc2c(c1)c(=O)c1c(NCCN(C)C)ccc3c(=O)n(CCN(C)C)c(=O)n2c31", "classification": "active"}
{"compound": "O=c1oc2ccccc2n1CCN1CCCCC1", "classification": "inactive"}
{"compound": "CS(=N)(=O)CCC(N)P(=O)(O)O (stereo not given)", "classification": "inactive"}
{"compound": "CNc1ncccc1Nc1cc(=O)n2c3cccnc3n(C)c2c1", "classification": "inactive"}
{"compound": "O=[N+]([O-])c1cnccc1-n1nnc2ccccc21", "classification": "inactive"}
{"compound": "C=C(C)[C@@]1(OC(=O)c2cc([N+](=O)[O-])cc([N+](=O)[O-])c2)C[C@@H]2CCCC[C@@H]21", "classification": "inactive"}
{"compound": "CO/N=C(\\C)c1ccc(Nc2nc3ccccc3c3occc23)cc1", "classification": "inactive"}
{"compound": "O=C(NCCC1CN(C(=O)OCc2ccccc2)c2ccccc21)OCc1ccccc1 (stereo not given)", "classification": "inactive"}
